Test system: Mycobacterium kansasii
Experiment: Antimycobacterial activity against Mycobacterium kansasii 6509/96 after 21 days
Assay type: functional
Details: 6509/96, 504 h
Field: label. Allowed values: class 1 (MIC < 60 µM) or class 0 (MIC >= 60 µM).

O=C(Nc1cccc(F)c1)c1cccc([N+](=O)[O-])c1O : class 0
O=C(Nc1cccc(C(F)(F)F)c1)c1cccc([N+](=O)[O-])c1O : class 0
O=C(Nc1cc(C(F)(F)F)cc(C(F)(F)F)c1)c1cccc([N+](=O)[O-])c1O : class 1
O=C(Nc1cccc(F)c1)c1ccc([N+](=O)[O-])cc1O : class 1
O=C(Nc1ccc([N+](=O)[O-])cc1)c1ccc([N+](=O)[O-])cc1O : class 1

## Task Lab log: compare recorded MIC with 60 µM; is it strictly lower for O=C(Nc1cccc(Cl)c1)c1cccc([N+](=O)[O-])c1O ?
## Result class 0

## Task is_below(MIC, 60 µM) for O=C(Nc1cccc([N+](=O)[O-])c1)c1cc([N+](=O)[O-])ccc1O ?
## Result class 0

## Task Please determine if O=C(Nc1ccc(Cl)c(Cl)c1)c1ccc([N+](=O)[O-])cc1O is below 60 µM in terms of MIC.
## Result class 1

## Task Below 60 µM on MIC? Entry O=C(Nc1cccc(I)c1)c1cc([N+](=O)[O-])ccc1O
## Result class 0

## Task Please state whether MIC is below 60 µM for O=C(Nc1ccc([N+](=O)[O-])c(C(F)(F)F)c1)c1cc([N+](=O)[O-])ccc1O
## Result class 0

====

Item-by-item account of MIC
Tested on: Pichia kudriavzevii
Test: Antifungal activity against Candida krusei E28 after 48 hrs by microdilution broth method
Assay type: functional
Details: E28, 48 h

Recorded MIC, per entry:
O=C(Nc1ccc([N+](=O)[O-])c(C(F)(F)F)c1)c1cc([N+](=O)[O-])ccc1O : > 500 µM
O=C(Nc1cccc(F)c1)c1ccc([N+](=O)[O-])cc1O : 62.5 µM
O=C(Nc1cc(C(F)(F)F)cc(C(F)(F)F)c1)c1cc([N+](=O)[O-])ccc1O : > 500 µM
OC(Cn1cncn1)(Cn1cncn1)c1ccc(F)cc1F : 250 µM
O=C(Nc1cccc(Cl)c1)c1ccc([N+](=O)[O-])cc1O : 125 µM

## Task Could you share what MIC was measured for O=C(Nc1cccc(Br)c1)c1ccc([N+](=O)[O-])cc1O , tested on Pichia kudriavzevii?
## Result 250 µM

## Task Find the measured MIC: item O=C(Nc1cccc(I)c1)c1ccc([N+](=O)[O-])cc1O , target or system Pichia kudriavzevii.
## Result > 500 µM

## Task Provide value of MIC for this record tested with Pichia kudriavzevii: O=C(Nc1cccc(Br)c1)c1cc([N+](=O)[O-])ccc1O
## Result > 500 µM

## Task Kindly state the measured MIC obtained for O=C(Nc1cccc(C(F)(F)F)c1)c1cc([N+](=O)[O-])ccc1O with Pichia kudriavzevii.
## Result > 500 µM

## Task GET /values?readout=MIC&system=Pichia kudriavzevii&item= O=C(Nc1ccc([N+](=O)[O-])cc1)c1ccc([N+](=O)[O-])cc1O
## Result > 500 µM

## Task GET /values?readout=MIC&system=Pichia kudriavzevii&item= O=C(Nc1ccc([N+](=O)[O-])cc1)c1cc([N+](=O)[O-])ccc1O
## Result > 500 µM

## Task Lab request: please report MIC under test system Pichia kudriavzevii for O=C(Nc1ccc(C(F)(F)F)cc1)c1cc([N+](=O)[O-])ccc1O
## Result > 500 µM

## Task Recall the recorded MIC for O=C(Nc1cccc([N+](=O)[O-])c1)c1ccc([N+](=O)[O-])cc1O with Pichia kudriavzevii and state it.
## Result > 250 µM

## Task Give Pichia kudriavzevii MIC for O=C(Nc1ccc(C(F)(F)F)cc1)c1ccc([N+](=O)[O-])cc1O
## Result 125 µM

## Task Kindly state the measured MIC obtained for O=C(Nc1cccc(I)c1)c1cc([N+](=O)[O-])ccc1O with Pichia kudriavzevii.
## Result 500 µM

## Task Observed MIC on Pichia kudriavzevii for O=C(Nc1cccc([N+](=O)[O-])c1)c1cc([N+](=O)[O-])ccc1O , please.
## Result > 250 µM

## Task Give Pichia kudriavzevii MIC for O=C(Nc1ccc([N+](=O)[O-])c(C(F)(F)F)c1)c1ccc([N+](=O)[O-])cc1O
## Result 250 µM

## Task Lab request: please report MIC under test system Pichia kudriavzevii for O=C(Nc1ccc(Cl)c(Cl)c1)c1ccc([N+](=O)[O-])cc1O
## Result 15.6 µM

## Task Any idea what MIC came out for O=C(Nc1cccc(Cl)c1)c1cc([N+](=O)[O-])ccc1O on Pichia kudriavzevii?
## Result > 500 µM

## Task Record lookup: for Pichia kudriavzevii, what MIC belongs to O=C(Nc1cc(C(F)(F)F)cc(C(F)(F)F)c1)c1ccc([N+](=O)[O-])cc1O ?
## Result > 500 µM

## Task Query MIC on Pichia kudriavzevii for O=C(Nc1ccc(Cl)c(Cl)c1)c1cc([N+](=O)[O-])ccc1O
## Result > 500 µM

## Task Short answer please: MIC, Pichia kudriavzevii, entry O=C(Nc1cccc(C(F)(F)F)c1)c1ccc([N+](=O)[O-])cc1O
## Result > 500 µM

## Task Lookup: MIC / Pichia kudriavzevii / O=C(Nc1cccc(F)c1)c1cc([N+](=O)[O-])ccc1O
## Result > 500 µM
